experiment: solubility in water
Assay type: physicochemical
study conditions: water
measured endpoint: solubility

Look over these answered cases.
| compound | solubility |
| --- | --- |
| CN=C(N)NCCC[C@H](NC(=O)CCCC[C@@H]1SC[C@@H]2NC(=O)N[C@@H]21)C(=O)O [Example 2, N-β-biotinyl-N^G-methyl-L-arginine] | > 10000 µg/mL |
| N=C(N)NCCC[C@H](NC(=O)CCCC[C@@H]1SC[C@@H]2NC(=O)N[C@@H]21)C(=O)O [Example 11, N-β-biotinyl-L-arginine] | > 10000 µg/mL |
| O=C1N[C@H]2[C@H](CS[C@H]2CCCCC(=O)N2CCN(CCO)CC2)N1 [Example 3] | > 10000 µg/mL |
| O=C(CCCC[C@@H]1SC[C@@H]2NC(=O)N[C@@H]21)NCCCCO [Example 5, N-β-biotinyl-4-amino-butanol] | > 5000 µg/mL |

// solubility lookup, key: O=C(CCCC[C@@H]1SC[C@@H]2NC(=O)N[C@@H]21)NCCO [Example 1, N-β-biotinyl-ethanolamine]
> 10000 µg/mL

----------
experiment: solubility in organic solvents
Type: physicochemical
study conditions: organic solvent or mixture; in hot DMSO
measured endpoint: solubility

Give its solubility value. Item: O=C(CCCC[C@@H]1SC[C@@H]2NC(=O)N[C@@H]21)NCCNC(=O)CCCC[C@@H]1SC[C@@H]2NC(=O)N[C@@H]21 [Example 6, N,N'bis-(β-biotinyl)-ethylendiamine]
> 2000 µg/mL

----------
experiment: solubility in water
Format: physicochemical
study conditions: aqueous buffer; in 0.1M phosphate buffer at pH 7.4
measured endpoint: solubility

| structure smiles | solubility |
| --- | --- |
| O=C(CCCC[C@@H]1SC[C@@H]2NC(=O)N[C@@H]21)N[C@@H](CS)C(=O)O | > 10000 µg/mL |

Field: next compound
What measured solubility goes with O=C(CCCC[C@@H]1SC[C@@H]2NC(=O)N[C@@H]21)N[C@@H](CO)C(=O)O ?
> 10000 µg/mL
